tested on: SNB-19 CNS; experiment: NCI tumour cell line growth inhibition, 48 h

Compound	Target or system	Comparator	TGI [µM]
Oc1cc(O)c2c(c1)O[C@H](c1cc(O)c(O)c(O)c1)[C@@H](O)C2	SNB-19 CNS	>	100
Clc1ccc2nc3n[nH]c(Cl)c3nc2c1	SNB-19 CNS	>	100
C=C(C)[C@@H]1CC[C@]2(COCCCNCCCN)CC[C@]3(C)[C@H](CC[C@@H]4[C@@]5(C)CC[C@H](OCCCN)C(C)(C)[C@@H]5CC[C@]43C)[C@@H]12	SNB-19 CNS	=	1.66
Clc1ccccc1[C@@H]1C[C@@H]2Cc3cc(Br)c4ccccc4c3N1O2	SNB-19 CNS	>	100
O=C(NNS(=O)(=O)c1ccc(Br)cc1)c1ccc(Cl)cc1NC(=O)C12CC3CC(CC(C3)C1)C2	SNB-19 CNS	=	28.7
N=S(=O)(c1ccccc1)c1ccccc1	SNB-19 CNS	>	100
N#C/C(=C/n1c(=S)[nH]c2ccccc21)C(N)=O	SNB-19 CNS	>	100
COc1cc2c3c(n(CCCCNC(=O)OC(C)(C)C)c(=O)c2cc1OC)-c1cc2c(cc1C3=O)OCO2	SNB-19 CNS	>	100
COc1cccc2c1C(=O)c1c(O)c3c(c(O)c1C2=O)C[C@@](O)(C(C)=O)C[C@@H]3OC1CC([N+]([O-])(Cc2ccccc2)Cc2ccccc2)C(O)C(C)O1 (some centres undefined)	SNB-19 CNS	=	15.8
Nc1nc(Nc2ccc(Cl)cc2)sc1C(=O)c1c[nH]c2ccccc12	SNB-19 CNS	=	38
O=C(O)/C=C/c1ccc[c]([Sb](=[O])([OH])[OH])c1	SNB-19 CNS	>	100
O=C(Nc1cc(Cl)ccc1Cl)c1cc2cccc(Br)c2oc1=O	SNB-19 CNS	>	100
c1cc(CN2CCCNCCNCCCNCC2)ccc1CN1CCCNCCNCCCNCC1	SNB-19 CNS	>	100
CN(C)c1ccc(C(=N)c2ccc(N(C)C)cc2)cc1	SNB-19 CNS	>	100
O=C1NCN(c2ccccc2)C12CCN(CCCC(c1ccc(F)cc1)c1ccc(F)cc1)CC2	SNB-19 CNS	=	12.8
CCOC(=O)CCC(NC(=O)c1ccc(Nc2nc3cc(C(F)(F)F)ccc3nc2C(=O)OCC)cc1)C(=O)OCC (centres undefined)	SNB-19 CNS	=	22.6
c1ccc2[nH]c3c(N=NC4=NCCN4)c4ccccc4c-3nc2c1	SNB-19 CNS	=	68.9
O=c1cc(-c2ccccc2)oc2ccc(OC/C(=N/O)c3ccc(F)cc3)cc12	SNB-19 CNS	>	50
O=C1/C(=C/c2ccc(F)c(F)c2)CN(C(=O)C(Cl)Cl)C/C1=C\c1ccc(F)c(F)c1	SNB-19 CNS	=	0.274

---

system: UO-31 renal; experiment: NCI tumour cell line growth inhibition, 48 h

Compound	Comparator	TGI / µM
COc1cccc2c1C(=O)c1c(O)c3c(c(O)c1C2=O)C[C@@](O)(C(=O)CN1CCOCC1)C[C@@H]3OC1CC(N)C(O)C(C)O1 (stereo not given in full)	=	59.6
C=C1C(=O)O[C@H]2[C@H]1CC/C(Cn1cc(Cc3c[nH]c4ccccc34)nn1)=C\CC[C@@]1(C)O[C@@H]21	=	2.86
COC(=O)[C@@H]1[C@H](O)CCC2=C(CC(=O)c3ccoc3)[C@H](C)CC[C@]21C	>	50
CCCCC(=C=C(C)CO)C1CCCN1C(=O)OC(C)(C)C (stereo not given)	=	37.7
CC(CN(C)C)S(=O)(=O)c1ccc(-c2cnc(N)c(C(=O)Nc3ccccc3)n2)cc1 (stereo not given)	=	28.7

Attribution: PubChem BioAssay (NCI)
